Data provenance: ChEMBL document CHEMBL3045098

Tested on: Staphylococcus aureus
Test: Antimicrobial activity against Staphylococcus aureus at 2000 ug after 24 hr by disk diffusion method relative to control
Type: functional
Provide the reported inhibition (INH) of each item.
Respond with the bare value in %.

Observed inhibition (INH), Staphylococcus aureus, COc1ccc(/N=N/c2cc(/C=N/c3ccccc3)c(O)c(OC)c2)cc1 : 45

inhibition (INH) on Staphylococcus aureus for CN[C@@H]1[C@H](O[C@H]2[C@H](O[C@H]3[C@H](O)[C@@H](O)[C@H](N=C(N)N)[C@@H](O)[C@@H]3N=C(N)N)O[C@@H](C)[C@]2(O)C=O)O[C@@H](CO)[C@H](O)[C@H]1O [STREPTOMYCIN] is 45

Entry COc1ccc(/N=N/c2cc(/C=N/c3ccc(S(=O)(=O)c4cccc(/N=C/c5cc(/N=N/c6ccc(OC)cc6)cc(OC)c5O)c4)cc3)c(O)c(OC)c2)cc1 , Staphylococcus aureus data, inhibition (INH) value: 45

// compound COc1ccc(/N=N/c2cc(/C=N/c3cccc(OC)c3)c(O)c(OC)c2)cc1 , assay Staphylococcus aureus, inhibition (INH) value: 45

Item COc1ccc(/N=N/c2cc(/C=N/c3cccc(C)c3)c(O)c(OC)c2)cc1 was tested on Staphylococcus aureus; the reported inhibition (INH) is 45

GET /values?item= COc1ccc(/N=N/c2cc(/C=N/c3cccc(O)c3)c(O)c(OC)c2)cc1 &system= Staphylococcus aureus returns inhibition (INH): 45

Short answer on Staphylococcus aureus for COc1ccc(/N=N/c2cc(C=O)c(O)c(OC)c2)cc1 , inhibition (INH): 45

---

Please provide measured zone of inhibition at 2000 µg/disc for the entries that follow.
System: Bacillus subtilis
Assay: Antimicrobial activity against Bacillus subtilis at 2000 ug after 24 hr by disk diffusion method
Type: functional
Conditions: read-out: IZ
Only the number, expressed in mm, is required.

Entry COc1ccc(/N=N/c2cc(/C=N/c3cccc(O)c3)c(O)c(OC)c2)cc1 , zone of inhibition at 2000 µg/disc reported as 10

Lab note: measured zone of inhibition at 2000 µg/disc of COc1ccc(/N=N/c2cc(/C=N/c3cccc(C)c3)c(O)c(OC)c2)cc1 was 10

The compound listed as COc1ccc(/N=N/c2cc(/C=N/c3cccc(OC)c3)c(O)c(OC)c2)cc1 has a reported zone of inhibition at 2000 µg/disc of 10

Measured zone of inhibition at 2000 µg/disc of COc1ccc(/N=N/c2cc(/C=N/c3ccc(S(=O)(=O)c4cccc(/N=C/c5cc(/N=N/c6ccc(OC)cc6)cc(OC)c5O)c4)cc3)c(O)c(OC)c2)cc1 : 14

Value of measured zone of inhibition at 2000 µg/disc for the entry COc1ccc(/N=N/c2cc(C=O)c(O)c(OC)c2)cc1 : 10

What the record says about COc1ccc(/N=N/c2cc(/C=N/c3ccccc3)c(O)c(OC)c2)cc1 : zone of inhibition at 2000 µg/disc is 10

Recorded zone of inhibition at 2000 µg/disc (compound CN[C@@H]1[C@H](O[C@H]2[C@H](O[C@H]3[C@H](O)[C@@H](O)[C@H](N=C(N)N)[C@@H](O)[C@@H]3N=C(N)N)O[C@@H](C)[C@]2(O)C=O)O[C@@H](CO)[C@H](O)[C@H]1O ): 14
